Origin of values: the supplement of paper PMC6555819

System: PPARg:RXRa 90nM:30nM, anti-RXR (NR concentration 90 nM, RXRa partner concentration 30 nM)
Method Description: PBM binding z-score (relative to random genomic background probes); higher = stronger binding; sequences stand for … in GC…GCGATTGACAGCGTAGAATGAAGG
Provide the recorded PBM binding z-score for the entries that follow.
Give only the figure.

Data request, read-out PBM binding z-score, for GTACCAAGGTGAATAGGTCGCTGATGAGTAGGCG
1.14

One more sequence: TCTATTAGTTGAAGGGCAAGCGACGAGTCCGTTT
2.98

One more sequence: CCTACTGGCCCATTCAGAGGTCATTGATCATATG
1.09

One more sequence: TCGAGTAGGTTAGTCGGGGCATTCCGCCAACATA
0.912

One more sequence: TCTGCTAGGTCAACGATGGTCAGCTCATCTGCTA
2.19

One more sequence: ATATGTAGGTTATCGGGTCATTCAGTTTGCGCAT
5.64

One more sequence: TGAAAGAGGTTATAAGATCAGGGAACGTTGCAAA
1.12

One more sequence: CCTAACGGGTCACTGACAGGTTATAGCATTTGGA
1.88

One more sequence: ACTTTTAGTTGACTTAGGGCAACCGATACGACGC
0.54

One more sequence: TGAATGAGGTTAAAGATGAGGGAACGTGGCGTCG
4.35

One more sequence: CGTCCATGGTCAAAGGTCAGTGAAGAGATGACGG
7.4

One more sequence: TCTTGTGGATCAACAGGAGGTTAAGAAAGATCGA
1.87

----------
Test system: LXRa homodimer (NR concentration 270 nM)
Method Description: PBM binding z-score (relative to random genomic background probes); higher = stronger binding; sequences stand for … in GC…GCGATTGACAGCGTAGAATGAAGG
Provide the recorded PBM binding z-score for the entries that follow.
Give only the figure.

Data request, read-out PBM binding z-score, for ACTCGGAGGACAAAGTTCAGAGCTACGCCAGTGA
1.79

One more sequence: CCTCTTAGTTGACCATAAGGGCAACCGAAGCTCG
0.345

One more sequence: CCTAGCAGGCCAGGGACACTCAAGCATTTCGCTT
-0.372

One more sequence: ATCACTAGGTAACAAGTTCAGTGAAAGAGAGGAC
0.705

One more sequence: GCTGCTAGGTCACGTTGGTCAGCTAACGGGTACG
0.0398

One more sequence: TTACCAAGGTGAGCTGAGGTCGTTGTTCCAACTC
-0.412

One more sequence: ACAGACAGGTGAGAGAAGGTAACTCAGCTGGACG
-0.413

One more sequence: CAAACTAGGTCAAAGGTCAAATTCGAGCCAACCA
6.34

One more sequence: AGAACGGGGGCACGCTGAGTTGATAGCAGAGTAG
0.116

One more sequence: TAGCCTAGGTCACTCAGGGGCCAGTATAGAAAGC
-0.258

One more sequence: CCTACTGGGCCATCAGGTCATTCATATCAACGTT
1.89

One more sequence: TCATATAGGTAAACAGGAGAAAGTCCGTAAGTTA
-0.02

One more sequence: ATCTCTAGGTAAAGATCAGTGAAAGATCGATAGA
0.0101

One more sequence: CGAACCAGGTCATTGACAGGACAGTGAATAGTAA
0.747

One more sequence: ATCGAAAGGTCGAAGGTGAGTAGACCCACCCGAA
-0.000535

One more sequence: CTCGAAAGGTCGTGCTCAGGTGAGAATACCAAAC
0.081

One more sequence: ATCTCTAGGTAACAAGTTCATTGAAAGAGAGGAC
1.5

One more sequence: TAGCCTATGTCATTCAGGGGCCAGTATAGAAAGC
-0.461

One more sequence: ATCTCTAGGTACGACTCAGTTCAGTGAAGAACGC
0.735

One more sequence: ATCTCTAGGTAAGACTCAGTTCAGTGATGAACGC
0.634

One more sequence: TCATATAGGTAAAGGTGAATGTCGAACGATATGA
-0.151

One more sequence: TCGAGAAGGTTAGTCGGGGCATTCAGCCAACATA
-0.271

One more sequence: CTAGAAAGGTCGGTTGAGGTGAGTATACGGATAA
-0.0561

One more sequence: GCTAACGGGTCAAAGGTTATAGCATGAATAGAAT
0.513

One more sequence: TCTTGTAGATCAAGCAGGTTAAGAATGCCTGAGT
-0.202

One more sequence: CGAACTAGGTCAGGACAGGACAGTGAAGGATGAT
-0.238

----------
Test system: PPARa:RXRa (NR concentration 270 nM, RXRa partner concentration 90 nM)
Method Description: PBM binding z-score (relative to random genomic background probes); higher = stronger binding; sequences stand for … in GC…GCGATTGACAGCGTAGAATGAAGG
Endpoint Name: PBM binding z-score
Give only the figure.

Data request, read-out PBM binding z-score, for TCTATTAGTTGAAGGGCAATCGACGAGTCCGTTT
0.795

One more sequence: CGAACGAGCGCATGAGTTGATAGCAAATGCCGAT
-1.7

One more sequence: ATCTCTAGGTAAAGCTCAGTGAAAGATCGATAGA
0.297

One more sequence: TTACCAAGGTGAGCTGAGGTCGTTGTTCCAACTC
1.75

One more sequence: ATCTCTAGGTATGACTCAGTTCAGTGAAGAACGC
0.0186

One more sequence: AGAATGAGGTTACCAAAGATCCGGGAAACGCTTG
3.23

----------
Tested on: RARb homodimer (NR concentration 270 nM)
Method Description: PBM binding z-score (relative to random genomic background probes); higher = stronger binding; sequences stand for … in GC…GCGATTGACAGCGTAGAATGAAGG
Binary call on PBM binding z-score: MET from 3 upward, NOT MET beneath that.

State whether the measured PBM binding z-score reaches 3, counting equality as reaching it, for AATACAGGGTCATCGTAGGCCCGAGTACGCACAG
MET

One more sequence: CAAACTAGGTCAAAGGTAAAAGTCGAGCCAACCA
NOT MET

One more sequence: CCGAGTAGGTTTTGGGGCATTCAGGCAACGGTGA
NOT MET

One more sequence: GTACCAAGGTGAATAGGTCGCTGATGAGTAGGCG
NOT MET

One more sequence: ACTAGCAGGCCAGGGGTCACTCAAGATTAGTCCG
MET

One more sequence: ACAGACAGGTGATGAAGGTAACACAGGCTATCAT
NOT MET

One more sequence: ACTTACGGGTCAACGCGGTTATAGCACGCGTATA
MET

One more sequence: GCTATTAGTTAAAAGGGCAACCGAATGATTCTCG
NOT MET

One more sequence: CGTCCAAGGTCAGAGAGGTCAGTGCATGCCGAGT
MET

----------
System: PPARg:RXRa 270nM:90nM, anti-RXR (NR concentration 270 nM, RXRa partner concentration 90 nM)
Method Description: PBM binding z-score (relative to random genomic background probes); higher = stronger binding; sequences stand for … in GC…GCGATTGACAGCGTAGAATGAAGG
Provide the recorded PBM binding z-score for the entries that follow.

Data request, read-out PBM binding z-score, for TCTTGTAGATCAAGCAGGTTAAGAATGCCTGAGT
1.1

One more sequence: TCTTGTAGATCAACACGAGGTTAAGAAAGATCGA
1.33

One more sequence: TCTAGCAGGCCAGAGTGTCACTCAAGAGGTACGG
1.81

One more sequence: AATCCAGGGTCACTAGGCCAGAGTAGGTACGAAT
6.61

One more sequence: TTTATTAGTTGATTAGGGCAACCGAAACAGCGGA
1.71

One more sequence: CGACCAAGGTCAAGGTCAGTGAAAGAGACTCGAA
6.54

One more sequence: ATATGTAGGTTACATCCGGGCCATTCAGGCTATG
4.09

One more sequence: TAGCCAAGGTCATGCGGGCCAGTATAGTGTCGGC
4.84

One more sequence: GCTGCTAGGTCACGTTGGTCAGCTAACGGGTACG
3.87

One more sequence: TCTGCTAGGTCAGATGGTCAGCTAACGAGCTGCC
2.53

One more sequence: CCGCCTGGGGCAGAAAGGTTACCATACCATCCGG
1.25

One more sequence: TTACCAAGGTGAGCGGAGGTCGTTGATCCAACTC
1.19

One more sequence: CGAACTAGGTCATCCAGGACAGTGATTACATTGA
6.33

One more sequence: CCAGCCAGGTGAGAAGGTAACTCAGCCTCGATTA
1.03

One more sequence: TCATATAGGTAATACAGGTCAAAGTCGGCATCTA
4.08

One more sequence: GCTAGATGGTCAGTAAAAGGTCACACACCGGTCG
3.94

One more sequence: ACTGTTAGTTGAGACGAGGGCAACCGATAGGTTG
-0.13

One more sequence: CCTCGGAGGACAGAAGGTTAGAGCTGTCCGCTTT
-0.434

One more sequence: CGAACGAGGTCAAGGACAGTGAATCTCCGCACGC
6.61

One more sequence: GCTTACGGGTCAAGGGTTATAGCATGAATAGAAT
7.41

One more sequence: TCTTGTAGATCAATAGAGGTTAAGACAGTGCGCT
1.48

One more sequence: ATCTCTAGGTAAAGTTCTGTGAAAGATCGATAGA
0.886

One more sequence: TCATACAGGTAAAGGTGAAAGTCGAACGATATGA
3.81

One more sequence: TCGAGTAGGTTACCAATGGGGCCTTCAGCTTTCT
0.957

One more sequence: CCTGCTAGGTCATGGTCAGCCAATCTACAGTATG
2.89

One more sequence: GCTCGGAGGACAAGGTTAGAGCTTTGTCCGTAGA
0.0367
